Experiment: Inhibition of xanthine oxidase assessed as conversion of xanthine to uric acid incubated for 3 min
ASSAY_ENDPOINT: pIC50
# pIC50 is unitless: minus log10 of the molar concentration; print number only

Briefly, pIC50 measured for O=c1oc2c(O)c(O[C@@H]3OC[C@@H](O)[C@H](O)[C@H]3O)cc3c(=O)oc4c(O)c(O)cc1c4c23 [ELLAGIC ACID 4-O-XYLOPYRANOSIDE] : 5.33

Briefly, pIC50 measured for O=C(O)c1cc(O)c(O)c(O)c1 : 4.38

----------
Assay: Inhibition of xanthine oxidase assessed as conversion of xanthine to uric acid incubated for 3 min
Kindly state pIC50 for each of the entries shown.
# pIC50 is unitless: minus log10 of the molar concentration; print number only

Briefly, pIC50 measured for O=c1oc2c(O)c(O)cc3c(=O)oc4c(O)c(O)cc1c4c23 : 5.03

Briefly, pIC50 measured for O=c1c(O)c(-c2ccc(O)c(O)c2)oc2cc(O)cc(O)c12 : 5.00

Briefly, pIC50 measured for O=C(O)C[C@@H]1C(=O)O[C@H]2[C@@H]3OC(=O)c4cc(O)c(O)c(O)c4-c4c(cc(O)c(O)c4O)C(=O)OC[C@H]2O[C@@H](OC(=O)c2cc(O)c(O)c(O)c2)[C@@H]3OC(=O)c2cc(O)c(O)c3c2[C@H]1[C@H](O)C(=O)O3 : 4.32

Just for reference, ChEMBL document CHEMBL3046377 is where these values come from.
